Target Under Test: recombinant human DPPI (Cathepsin C) (Homo sapiens (Human))
Sequence (P53634 231-394): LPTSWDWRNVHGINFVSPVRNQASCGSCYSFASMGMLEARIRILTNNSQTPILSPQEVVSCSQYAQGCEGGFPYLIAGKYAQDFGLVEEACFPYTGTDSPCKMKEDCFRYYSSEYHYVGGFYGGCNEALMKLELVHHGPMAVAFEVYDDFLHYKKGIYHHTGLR
Sequence (P53634 395-463): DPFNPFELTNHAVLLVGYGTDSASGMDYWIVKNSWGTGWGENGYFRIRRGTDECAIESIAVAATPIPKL
Sequence (P53634 25-134): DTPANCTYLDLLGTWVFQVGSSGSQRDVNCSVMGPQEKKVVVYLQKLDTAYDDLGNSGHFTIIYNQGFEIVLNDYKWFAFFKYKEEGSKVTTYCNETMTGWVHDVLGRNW
Assay Explanation: Inhibition of human DPPI (Cathepsin C)
Type: biochemical
Test Parameters: substrate Gly-Arg-AMC
Measurement Kind: log10 of IC50 (log10 of the value in nM)
Plainly stated, the numbers are log10 of IC50 given in nM.

[
  {
    "Compound": "CN(C)CCn1ccc(-c2ccc(C[C@@H](C#N)NC(=O)[C@H]3N[C@@H]4CC[C@H]3C4)c(F)c2)cc1=O",
    "Meas Value": 1.42
  },
  {
    "Compound": "N#CC(Cc1cccc2[nH]c(=O)c3ccccc3c12)NC(=O)[C@H]1N[C@@H]2CC[C@H]1C2 (stereo partly shown)",
    "Meas Value": 3.38
  },
  {
    "Compound": "COc1ccc2[nH]c(=O)c3cc(CC(C#N)NC(=O)[C@H]4N[C@@H]5CC[C@H]4C5)ccc3c2c1 (stereo partly shown)",
    "Meas Value": 1.04
  },
  {
    "Compound": "N#C[C@H](Cc1ccc(-c2cccc(S(N)(=O)=O)c2)cc1F)NC(=O)[C@H]1N[C@@H]2CC[C@H]1C2",
    "Meas Value": 0.67
  },
  {
    "Compound": "CCNC(=O)c1ccc(-c2ccc(C[C@@H](C#N)NC(=O)[C@H]3N[C@@H]4CC[C@H]3C4)c(F)c2)cc1",
    "Meas Value": 0.94
  },
  {
    "Compound": "CS(=O)(=O)c1cc(-c2ccc(C[C@@H](C#N)NC(=O)[C@H]3N[C@@H]4CC[C@H]3C4)c(F)c2)ccc1F",
    "Meas Value": 0.32
  }
]

Next item in the queue.
Param item = N#C[C@H](Cc1ccc(-c2cnn(-c3ccccc3)c2)cc1F)NC(=O)[C@H]1N[C@@H]2CC[C@H]1C2 ; retrieve measured log10 of IC50.
0.70

----------
Target Under Test: recombinant human DPPI (Cathepsin C) (Homo sapiens (Human))
Assay Explanation: Inhibition of human DPPI (Cathepsin C)
Format: biochemical
Test Parameters: substrate Gly-Arg-AMC
Source text: Inhibition of Human DPPI (Cathepsin C) Bovine serum albumin (BSA; Prod. No. A3059) and Dithiothreitol (DTT; Prod. No D0632) were from Sigma. […] The DPP1 inhibitor Gly-Phe-DMK was purchased from MP Biomedicals (Prod.-No. 03DK00625). The recombinant human DPPI was purchased from Prozymex. All other materials were of highest grade commercially available. […]
Strictly below 10 nM in IC50: fulfilled. Otherwise: not fulfilled.

Example cases with answers are listed next.
[
  {
    "Compound": "CC1(C)OC(=O)c2ccc(-c3ccc(C[C@@H](C#N)NC(=O)[C@H]4N[C@@H]5CC[C@H]4C5)c(F)c3)cc21",
    "Target Under Test": "recombinant human DPPI (Cathepsin C) (Homo sapiens (Human))",
    "Cat": "fulfilled"
  },
  {
    "Compound": "CS(C)(=O)=Nc1cccc(-c2ccc(C[C@@H](C#N)NC(=O)[C@H]3N[C@@H]4CC[C@H]3C4)c(F)c2)c1",
    "Target Under Test": "recombinant human DPPI (Cathepsin C) (Homo sapiens (Human))",
    "Cat": "fulfilled"
  },
  {
    "Compound": "N#CC(Cc1ccc2c(c1)[nH]c(=O)c1cc(F)ccc12)NC(=O)[C@H]1N[C@@H]2CC[C@H]1C2 (stereo partly drawn)",
    "Target Under Test": "recombinant human DPPI (Cathepsin C) (Homo sapiens (Human))",
    "Cat": "not fulfilled"
  },
  {
    "Compound": "N#C[C@H](Cc1ccc(-c2ccc(C(N)=O)cc2)cc1F)NC(=O)[C@H]1N[C@H]2C[C@@H]1[C@@H]1C[C@@H]12",
    "Target Under Test": "recombinant human DPPI (Cathepsin C) (Homo sapiens (Human))",
    "Cat": "not fulfilled"
  },
  {
    "Compound": "CC(=O)n1cc(-c2ccc(C[C@@H](C#N)NC(=O)[C@H]3N[C@@H]4CC[C@H]3C4)c(F)c2)cn1",
    "Target Under Test": "recombinant human DPPI (Cathepsin C) (Homo sapiens (Human))",
    "Cat": "fulfilled"
  },
  {
    "Compound": "N#C[C@H](Cc1ccc(N2CCCCC2)cc1F)NC(=O)[C@H]1N[C@@H]2CC[C@H]1C2",
    "Target Under Test": "recombinant human DPPI (Cathepsin C) (Homo sapiens (Human))",
    "Cat": "not fulfilled"
  },
  {
    "Compound": "CS(=O)(=NC#N)c1cccc(-c2ccc(C[C@@H](C#N)NC(=O)[C@H]3N[C@@H]4CC[C@H]3C4)c(F)c2)c1 (stereo partly drawn)",
    "Target Under Test": "recombinant human DPPI (Cathepsin C) (Homo sapiens (Human))",
    "Cat": "fulfilled"
  },
  {
    "Compound": "CN1C2CCC1CN(c1ccc(C[C@@H](C#N)NC(=O)[C@H]3N[C@@H]4CC[C@H]3C4)c(F)c1)C2",
    "Target Under Test": "recombinant human DPPI (Cathepsin C) (Homo sapiens (Human))",
    "Cat": "not fulfilled"
  },
  {
    "Compound": "CN1CCc2cc(-c3ccc(C[C@@H](C#N)NC(=O)[C@H]4N[C@@H]5CC[C@H]4C5)c(F)c3)ccc2C1=O",
    "Target Under Test": "recombinant human DPPI (Cathepsin C) (Homo sapiens (Human))",
    "Cat": "fulfilled"
  },
  {
    "Compound": "CN1CCC(N2C(=O)Cc3ccc(-c4ccc(C[C@@H](C#N)NC(=O)[C@H]5N[C@@H]6CC[C@H]5C6)c(F)c4)cc32)CC1",
    "Target Under Test": "recombinant human DPPI (Cathepsin C) (Homo sapiens (Human))",
    "Cat": "fulfilled"
  }
]

Lab log: compare recorded IC50 with 10 nM; is it strictly lower for CCC(C)(O)Cc1cn(-c2ccc(C[C@@H](C#N)NC(=O)[C@H]3N[C@@H]4CC[C@H]3C4)c(F)c2)nn1 (stereo partly drawn) ?
not fulfilled

Lab log: compare recorded IC50 with 10 nM; is it strictly lower for CN1C(=O)Cc2ccc(-c3ccc(C[C@@H](C#N)NC(=O)[C@H]4N[C@@H]5CC[C@H]4C5)c(Cl)c3)cc21 ?
not fulfilled
